assay: RP-HPLC elution (% ACN) as measure of hydrophobicity; type: physicochemical; settings: chromatographic hydrophobicity; gradient of 5–95% acetonitrile (ACN) over 45 minutes, C18 column, 0.2 mL/min; average of three replicates
Non-standard residues stand in square brackets, D forms with d. Residues, ends and D or L forms follow the SMILES beside them. Nspe = C[C@H](NCC(=O)O)c1ccccc1; Nphe = O=C(O)CNCc1ccccc1; Nlys = NCCCCNCC(=O)O
Quick reference: % ACN at RP-HPLC elution of the listed items.
Value kind: % ACN at RP-HPLC elution

1) C[C@@H](c1ccccc1)N(CC(N)=O)C(=O)CN(C(=O)CN(CCCCN)C(=O)CN(C(=O)CN(C(=O)CN(CCCCN)C(=O)CN(C(=O)CN(C(=O)CN(CCCCN)C(=O)CN(C(=O)CN(C(=O)CNCCCCN)[C@@H](C)c1ccccc1)[C@@H](C)c1ccccc1)[C@@H](C)c1ccccc1)[C@@H](C)c1ccccc1)[C@@H](C)c1ccccc1)[C@@H](C)c1ccccc1)[C@@H](C)c1ccccc1 [compound 1] (H-[Nlys][Nspe][Nspe][Nlys][Nspe][Nspe][Nlys][Nspe][Nspe][Nlys][Nspe][Nspe]-NH2)    64.2%
2) C[C@@H](c1ccccc1)N(CC(N)=O)C(=O)CN(C(=O)CN(CCCCN)C(=O)[C@@H]1CCCN1C(=O)CN(C(=O)CN(CCCCN)C(=O)CN(C(=O)CN(C(=O)CN(CCCCN)C(=O)CN(C(=O)CN(C(=O)CNCCCCN)[C@@H](C)c1ccccc1)[C@@H](C)c1ccccc1)[C@@H](C)c1ccccc1)[C@@H](C)c1ccccc1)[C@@H](C)c1ccccc1)[C@@H](C)c1ccccc1 [1-Pro9] (H-[Nlys][Nspe][Nspe][Nlys][Nspe][Nspe][Nlys][Nspe]P[Nlys][Nspe][Nspe]-NH2)    62.6%
3) NCCCCNCC(=O)N(CC(=O)N(CC(=O)N(CCCCN)CC(=O)N(CC(=O)N(CC(=O)N(CCCCN)CC(=O)N(CC(=O)N(CC(=O)N(CCCCN)CC(=O)N(CC(=O)N(CC(N)=O)Cc1ccccc1)Cc1ccccc1)Cc1ccccc1)Cc1ccccc1)Cc1ccccc1)Cc1ccccc1)Cc1ccccc1)Cc1ccccc1 [1 achiral] (H-[Nlys][Nphe][Nphe][Nlys][Nphe][Nphe][Nlys][Nphe][Nphe][Nlys][Nphe][Nphe]-NH2)    60.4%
4) C[C@@H](c1ccccc1)N(CC(N)=O)C(=O)CN(CCCCN)C(=O)CN(CCCCN)C(=O)CN(C(=O)CN(C(=O)CN(CCCCN)C(=O)CN(C(=O)CN(CCCCN)C(=O)CN(CCCCN)C(=O)CN(C(=O)CN(C(=O)CNCCCCN)[C@@H](C)c1ccccc1)[C@@H](C)c1ccccc1)[C@@H](C)c1ccccc1)[C@@H](C)c1ccccc1)[C@@H](C)c1ccccc1 [1-NLys5,11] (H-[Nlys][Nspe][Nspe][Nlys][Nlys][Nspe][Nlys][Nspe][Nspe][Nlys][Nlys][Nspe]-NH2; N-terminus and C-terminus assumed)    51.2%
